Hello, the source for this data is patent US20190041402A1, in case you need it.

# tested-system: T1, extracellular domain (ECD) of human αKlotho, amino acids E34-S981 with C-terminal 6-His tag (R&D Systems … (human, UniProt Q9UEF7 34-981))
# T1 construct: range 34-981; also called αKlotho (aa34-981); target antigen
# T1 sequence: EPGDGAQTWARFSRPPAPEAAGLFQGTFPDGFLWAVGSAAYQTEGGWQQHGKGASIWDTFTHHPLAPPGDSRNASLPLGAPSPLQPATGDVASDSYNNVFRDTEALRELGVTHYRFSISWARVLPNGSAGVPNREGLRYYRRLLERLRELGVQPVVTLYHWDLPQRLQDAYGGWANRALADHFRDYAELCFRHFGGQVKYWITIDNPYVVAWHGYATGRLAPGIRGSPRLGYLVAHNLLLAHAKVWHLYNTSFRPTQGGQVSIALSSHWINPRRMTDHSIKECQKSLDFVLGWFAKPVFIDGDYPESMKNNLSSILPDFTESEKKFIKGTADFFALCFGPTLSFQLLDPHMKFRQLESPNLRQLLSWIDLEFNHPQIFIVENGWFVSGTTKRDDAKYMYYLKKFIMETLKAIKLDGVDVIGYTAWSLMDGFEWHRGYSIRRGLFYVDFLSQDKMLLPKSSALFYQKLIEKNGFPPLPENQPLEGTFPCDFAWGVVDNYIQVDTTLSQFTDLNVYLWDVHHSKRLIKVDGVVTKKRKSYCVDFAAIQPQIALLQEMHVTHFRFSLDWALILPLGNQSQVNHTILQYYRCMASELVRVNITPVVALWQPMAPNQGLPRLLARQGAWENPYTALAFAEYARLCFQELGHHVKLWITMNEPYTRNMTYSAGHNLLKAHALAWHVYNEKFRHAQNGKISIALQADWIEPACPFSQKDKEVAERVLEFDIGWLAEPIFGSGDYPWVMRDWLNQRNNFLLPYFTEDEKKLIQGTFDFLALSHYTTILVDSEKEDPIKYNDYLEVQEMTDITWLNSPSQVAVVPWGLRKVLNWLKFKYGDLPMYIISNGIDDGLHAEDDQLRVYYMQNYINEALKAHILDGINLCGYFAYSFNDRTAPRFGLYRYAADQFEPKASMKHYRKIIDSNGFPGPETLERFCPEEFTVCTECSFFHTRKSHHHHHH
# protocol-text: SPR, Fab captured by anti-H+L IgG, αKlotho injected at 50 to 6.25 ug/ml, Langmuir fit [continued]
measured-quantity: koff
Give the number first and the unit second.

{"binder": "anti-αKlotho Fab clone 4811 (Fab, V domains shown, Fab (also as Fab-phage); FLAG tag on light chain; also called sb180) VH: EVQLVESGGGLVQPGGSLRLSCAASGFNLYYSYMHWVRQAPGKGLEWVASIYSSSSYTSYADSVKGRFTISADTSKNTAYLQMNSLRAEDTAVYYCARSPSWWVSYHSALDYWGQGTLVTVSS VL: DIQMTQSPSSLSASVGDRVTITCRASQSVSSAVAWYQQKPGKAPKLLIYSASSLYSGVPSRFSGSRSGTDFTLTISSLQPEDFATYYCQQGYALFTFGQGTKVEIKR", "measured": "0.000609 s⁻¹"}

Reported koff, binder anti-αKlotho Fab clone 4816 (Fab, V domains shown, Fab (also as Fab-phage); FLAG tag on light chain; also called sb185) VH: EVQLVESGGGLVQPGGSLRLSCAASGFNFSSSSIHWVRQAPGKGLEWVASISSSYGYTYYADSVKGRFTISADTSKNTAYLQMNSLRAEDTAVYYCARGWYAAYSVYWFGGHASYGLDYWGQGTLVTVSS VL: DIQMTQSPSSLSASVGDRVTITCRASQSVSSAVAWYQQKPGKAPKLLIYSASSLYSGVPSRFSGSRSGTDFTLTISSLQPEDFATYYCQQSSYSLITFGQGTKVEIKR : ____
0.00183 s⁻¹

Try the binder anti-αKlotho Fab clone 4818 (Fab, V domains shown, Fab (also as Fab-phage); FLAG tag on light chain; also called sb187) VH: EVQLVESGGGLVQPGGSLRLSCAASGFNISYSSIHWVRQAPGKGLEWVASISPYSGYTYYADSVKGRFTISADTSKNTAYLQMNSLRAEDTAVYYCARSGHSVYWWWSHFGMDYWGQGTLVTVSS VL: DIQMTQSPSSLSASVGDRVTITCRASQSVSSAVAWYQQKPGKAPKLLIYSASSLYSGVPSRFSGSRSGTDFTLTISSLQPEDFATYYCQQPYSPITFGQGTKVEIKR
0.000539 s⁻¹
